Would you mind telling me the reported % growth at 10 µM of each entry?
tested on: SF-539; format: cell-based; details: Homo sapiens, one dose 10^-5 M, 48 h
The answer should read as a number with its unit following.

Input line: Specify reported % growth at 10 µM for the compound shown: COc1ccc(/C=N\NC(=N)c2c(N)nc(S)nc2-c2ccc(N(C)C)cc2)cc1
Output line: 108%

Input line: Specify reported % growth at 10 µM for the compound shown: COc1ccc(C=NNC(=N)c2c(N)nc(S)nc2-c2ccc(Cl)cc2Cl)cc1
Output line: 96.8%

Input line: Specify reported % growth at 10 µM for the compound shown: N=C(NN=Cc1ccc(Cl)cc1)c1c(N)nc(S)nc1-c1ccc(Cl)cc1Cl
Output line: 87.3%

Input line: Specify reported % growth at 10 µM for the compound shown: CN(C)c1ccc(-c2nc(S)nc(N)c2C#N)cc1
Output line: 98.4%

Input line: Specify reported % growth at 10 µM for the compound shown: CN(C)c1ccc(-c2nc(S)nc(N)c2C(=N)NN=Cc2ccc(Cl)cc2Cl)cc1
Output line: 81.6%

Input line: Specify reported % growth at 10 µM for the compound shown: COc1ccc(C=NNC(=N)c2c(N)nc(S)nc2-c2ccc(Cl)cc2)cc1
Output line: 101%

Input line: Specify reported % growth at 10 µM for the compound shown: Nc1nc(S)nc(-c2ccc(Cl)cc2Cl)c1-c1ncn[nH]1
Output line: 101%

---

tested on: SF-268; type: cell-based; conditions: Homo sapiens, one dose 10^-5 M, 48 h, read-out: % growth
Would you mind telling me the reported activity at 10 µM of each entry?
A number alone suffices; assume %.

Input line: Specify reported activity at 10 µM for the molecule shown: CN(C)c1ccc(-c2nc(S)nc(N)c2C(=N)NN=Cc2ccc(Cl)cc2Cl)cc1
Output line: 100

Input line: Specify reported activity at 10 µM for the molecule shown: N#Cc1c(N)nc(S)nc1-c1ccc(Cl)cc1
Output line: 69.7

Input line: Specify reported activity at 10 µM for the molecule shown: N=C(NN=Cc1ccc(Cl)cc1Cl)c1c(N)nc(S)nc1-c1ccc(Cl)cc1
Output line: 73.6

Input line: Specify reported activity at 10 µM for the molecule shown: N=C(NN=Cc1ccc([N+](=O)[O-])cc1)c1c(N)nc(S)nc1-c1ccc(Cl)cc1
Output line: 117

---

test system: MDA-MB-435; format: cell-based; conditions: Homo sapiens, one dose 10^-5 M, 48 h, read-out: % growth
Would you mind telling me the reported activity at 10 µM of each entry?
A number alone suffices; assume %.

Input line: Specify reported activity at 10 µM for the molecule shown: N=C(NN=Cc1ccccc1)c1c(N)nc(S)nc1-c1ccc(Cl)cc1
Output line: 77.3

Input line: Specify reported activity at 10 µM for the molecule shown: Nc1nc(S)nc(-c2ccc(Cl)cc2Cl)c1-c1ncn[nH]1
Output line: 105

Input line: Specify reported activity at 10 µM for the molecule shown: CN(C)c1ccc(-c2nc(S)nc(N)c2C(=N)NN=Cc2ccc(Cl)cc2)cc1
Output line: 96.2

Input line: Specify reported activity at 10 µM for the molecule shown: N=C(NN=Cc1ccccc1)c1c(N)nc(S)nc1-c1ccc(Cl)cc1Cl
Output line: 110

Input line: Specify reported activity at 10 µM for the molecule shown: CN(C)c1ccc(-c2nc(S)nc(N)c2C#N)cc1
Output line: 103

Input line: Specify reported activity at 10 µM for the molecule shown: CN(C)c1ccc(-c2nc(S)nc(N)c2C(=N)NN=Cc2ccccc2)cc1
Output line: 99.4

Input line: Specify reported activity at 10 µM for the molecule shown: COc1ccc(C=NNC(=N)c2c(N)nc(S)nc2-c2ccc(Cl)cc2Cl)cc1
Output line: 113

Input line: Specify reported activity at 10 µM for the molecule shown: N=C(NN=Cc1ccc(Cl)cc1)c1c(N)nc(S)nc1-c1ccc(Cl)cc1Cl
Output line: 104

Input line: Specify reported activity at 10 µM for the molecule shown: CN(C)c1ccc(-c2nc(S)nc(N)c2-c2ncn[nH]2)cc1
Output line: 113

Input line: Specify reported activity at 10 µM for the molecule shown: N=C(NN=Cc1ccc(Br)cc1)c1c(N)nc(S)nc1-c1ccc(Cl)cc1Cl
Output line: 104

Input line: Specify reported activity at 10 µM for the molecule shown: N#Cc1c(N)nc(S)nc1-c1ccc(Cl)cc1
Output line: 86.5

Input line: Specify reported activity at 10 µM for the molecule shown: CN(C)c1ccc(-c2cc([N+](=O)[O-])ccc2C=NNC(=N)c2cnc(S)nc2N)cc1
Output line: 102
